Test system: HepG2-A16-CD81EGFP cells
Assay: cells
Conditions: Homo sapiens, HepG2, read-out: Tox max inhibition (%) @ 50 uM
Each entry gets class 0 if its inhibition at 50 µM stays under 20%, and class 1 if its inhibition at 50 µM is 20% or above.

Reported inhibition at 50 µM reaches at least 20% for COc1ccc(C)c2sc(N(Cc3cccnc3)C(=O)c3ccc(C#N)cc3)nc12 ?
class 1

Reported inhibition at 50 µM reaches at least 20% for Cc1sc(NC(=O)c2ccccc2)c(C(c2cccs2)N2CCN(c3ccccc3)CC2)c1C (stereo not drawn) ?
class 1

Reported inhibition at 50 µM reaches at least 20% for CC(C)(C)CC(C)(C)NCC(O)COc1ccc(Cl)cc1Cl (stereo not drawn) ?
class 1

Reported inhibition at 50 µM reaches at least 20% for O=C(NC1CCCC1)c1ccc(N2CCC(NCc3cccc(C(F)(F)F)c3)CC2)cc1 ?
class 0

Reported inhibition at 50 µM reaches at least 20% for CN(C)c1ccc(C(O)(c2ccc(N(C)C)cc2)c2ccc(N(C)C)cc2)cc1 ?
class 1

Reported inhibition at 50 µM reaches at least 20% for N#Cc1nc(Cc2cccc3ccccc23)oc1N1CCN(C(c2ccccc2)c2ccccc2)CC1 ?
class 0

Reported inhibition at 50 µM reaches at least 20% for O=C(c1ccccc1F)N(Cc1ccc(Cl)cc1)c1ccccn1 ?
class 0

Reported inhibition at 50 µM reaches at least 20% for Cc1ccc(N2C(=O)C3C(C2=O)C2(c4ccccc4)C(=O)C3(c3ccccc3)C(c3ccccc3)=C2c2ccccc2)cc1 (stereo not drawn) ?
class 0

Reported inhibition at 50 µM reaches at least 20% for O=C(Nc1ccc(F)c(Cl)c1)Nc1ccc(Cl)c(Cl)c1 ?
class 1

Reported inhibition at 50 µM reaches at least 20% for COc1ccc(C2c3ccc4ccccc4c3Oc3ncn(CCCN(C)C)c(=N)c32)cc1 (stereo not drawn) ?
class 1

Reported inhibition at 50 µM reaches at least 20% for CC(C)(C)c1ccc(C2CC3=Nc4ccccc4N(C(=O)c4ccccc4Cl)C(c4ccc(F)cc4)C3=C(O)C2)cc1 (stereo not drawn) ?
class 0

Reported inhibition at 50 µM reaches at least 20% for CCCc1c(C)nc2ccc(Br)cc2c1O ?
class 0

Reported inhibition at 50 µM reaches at least 20% for COc1cccc(C(=O)NC(c2ccc(C)cc2)c2cc(Cl)c3cccnc3c2O)c1 (stereo not drawn) ?
class 1

Reported inhibition at 50 µM reaches at least 20% for Oc1c2c(nc3ccccc13)CCCC2 ?
class 0

Reported inhibition at 50 µM reaches at least 20% for c1ccc(C2=Nc3ccccc3N=C(c3ccccc3)c3ccccc32)cc1 ?
class 0

Reported inhibition at 50 µM reaches at least 20% for Cc1cc(NC(=O)C2c3ccccc3C(=O)N(CC(C)C)C2c2cccs2)no1 (stereo not drawn) ?
class 0

Reported inhibition at 50 µM reaches at least 20% for COc1ccc(C2NCCc3c2[nH]c2ccccc32)cc1CN1CCN(c2ccc(F)cc2)CC1 (stereo not drawn) ?
class 1

Reported inhibition at 50 µM reaches at least 20% for CC(C)(C)c1ccc(C(=O)Nc2c3c(nn2-c2cccc(Cl)c2)CSC3)cc1 ?
class 0

----------
Assign pIC50 to each entry below.
System: Plasmodium berghei (Pb-Luc) exoerythrocytic-stage parasites
Experiment: microbe, parasite or virus in culture
Details: read-out: PbLuc IC50, dose response, 1/3 dilutions, max conc. 10 or 50 uM, unit inferred
By convention, pIC50 is the negative base-10 log of a molar concentration.

GET /values?readout=pIC50&item= Oc1ccc(-c2nc(-c3ccc4oc5ccc(-c6[nH]c(-c7ccc(O)cc7)nc6-c6ccccc6)cc5c4c3)c(-c3ccccc3)[nH]2)cc1 [MMV000753]
5.23

GET /values?readout=pIC50&item= CCOc1ccccc1CN1CCc2nc3cc(C(C)(C)C)nn3c(O)c2C1 [MMV396595]
6.24

GET /values?readout=pIC50&item= COc1ccccc1CNC(=O)CCn1c(=O)[nH]c2ccsc2c1=O [MMV019066]
7.25

GET /values?readout=pIC50&item= O=C(Nc1cccc(C(F)(F)F)c1)c1cc(Cl)ccc1O [MMV665807]
6.68

GET /values?readout=pIC50&item= CC(C)OCc1cc(CN2CCN(c3cccc(Cl)c3)CC2)c(O)c2ncccc12 [MMV000788]
6.00

GET /values?readout=pIC50&item= O=C(Nc1ccc(F)c(Cl)c1)Nc1ccc(Cl)c(Cl)c1 [MMV665953]
6.07

GET /values?readout=pIC50&item= CCOc1ccc(CN2CCN(CC(O)COc3ccc(OCC(O)CN4CCN(Cc5ccc(OCC)cc5)CC4)cc3)CC2)cc1 (centres unmarked) [MMV007092]
4.91

GET /values?readout=pIC50&item= O=C(c1ccccc1F)N(Cc1ccc(Cl)cc1)c1ccccn1 [MMV665899]
5.02
